- System: 22AG human telomeric sequence G4
- TEST_PROTOCOL: TO-PRO-3 G4-FID assay
- Format: binding
- CONDITIONS_USED: TO-PRO-3 2 eq, K+100 buffer
PROPERTY_LABEL: % of TOPRO3 displacement at 1 µM of ligand (%)
# number only, unit % dropped from output

# annotated cases, reported % of TOPRO3 displacement at 1 µM of ligand shown
[Cl-].[Cl][Pt+].c1ccc(-c2cc(-c3ccc(OCCN4CCCC4)cc3)nc(-c3ccccn3)n2)nc1
25
C[n+]1cc(NC(=O)c2ccc3ccc4ccc(C(=O)Nc5cc6ccccc6[n+](C)c5)nc4c3n2)cc2ccccc21 [PhenDC3, reference compound]
85
Cc1ccc(-c2cc(-c3ccccn3)nc(-c3ccccn3)c2)cc1.[Cl-].[Cl][Pt+]
65
CN(C)CCCNCc1ccc(-c2cc(-c3ccccn3)nc(-c3ccccn3)c2)cc1.[Cl-].[Cl][Pt+]
78

Exam item: Would you mind telling me what % of TOPRO3 displacement at 1 µM of ligand value was observed for [Cl-].[Cl][Pt+].c1ccc(-c2cccc(-c3ccccn3)n2)nc1 ?
Marked response: 12

Exam item: // returns reported % of TOPRO3 displacement at 1 µM of ligand for input CN(C)c1ccc(/C=C/c2cc(-c3ccccn3)nc(-c3ccccn3)n2)cc1.[Cl-].[Cl][Pt+]
Marked response: 28

* * *

- Tested on: CEB25-WT minisatellite sequence G4
- TEST_PROTOCOL: TO G4-FID assay
- Assay type: binding
- CONDITIONS_USED: TO 2 eq, K+100 buffer
PROPERTY_LABEL: % of TO displacement at 1 µM of ligand (%)
Supply the numeric figure in %, leaving out any unit text.

CN(C)CCCNCc1ccc(-c2cc(-c3ccccn3)nc(-c3ccccn3)c2)cc1.[Cl-].[Cl][Pt+]
82
[Cl-].[Cl][Pt+].c1ccc(-c2cccc(-c3ccccn3)n2)nc1
14
Cc1ccc(-c2cc(-c3ccccn3)nc(-c3ccccn3)c2)cc1.[Cl-].[Cl][Pt+]
66
C[n+]1cc(NC(=O)c2ccc3ccc4ccc(C(=O)Nc5cc6ccccc6[n+](C)c5)nc4c3n2)cc2ccccc21 [PhenDC3, reference compound]
90
F[P-](F)(F)(F)(F)F.[Pt+][C]#Cc1ccccc1.c1ccc(-c2cccc(-c3ccccn3)n2)nc1
37

In the following, a different compound is considered.
Exam item: Quick one: % of TO displacement at 1 µM of ligand for [Cl-].[Cl][Pt+].c1ccc(-c2cc(-c3ccc(OCCN4CCCC4)cc3)nc(-c3ccccn3)n2)nc1 ?
Marked response: 43

* * *

Measured % TO displacement, listed per entry for reference.
- Tested on: 21CTA (DNA, G4) AGGGCTAGGGCTAGGGCTAGGG
- TEST_PROTOCOL: G4-FID, thiazole orange displacement
- CONDITIONS_USED: 100 mM KCl; 10 mM lithium cacodylate pH 7.3, 1% DMSO; thiazole orange displaced; 1 µM compound, 0.25 µM DNA

Cc1ccc(-c2cc(-c3ccccn3)nc(-c3ccccn3)c2)cc1.[Cl-].[Cl][Pt+] [Pt-ttpy]
> 80%
[Cl-].[Pt+2].c1cc(-c2ccc3ccccc3n2)nc(-c2ccc3ccccc3n2)c1
> 80%
CN(C)CCCNCc1ccc(-c2cc(-c3ccccn3)nc(-c3ccccn3)c2)cc1.[Cl-].[Cl][Pt+] [Pt-ctpy]
> 80%

From here, focus on the item given below.
Exam item: Give the measured % TO displacement of [Cl-].[Cl][Pt+].c1ccc(-c2cc(-c3ccc(OCCN4CCCC4)cc3)nc(-c3ccccn3)n2)nc1 [Pt-cpym] .
Marked response: < 60%

* * *

- Test system: A2780 ovarian cancer cell line
- TEST_PROTOCOL: Cell growth (proliferation), 96 h treatment
- Assay type: cell-based, human
- CONDITIONS_USED: A2780, 96 h treatment
PROPERTY_LABEL: pIC50
pIC50 field: float, defined as -log10 of concentration (mol/L).

[Cl-].[Cl][Pt+].c1ccc(-c2cc(-c3ccc(OCCN4CCCC4)cc3)nc(-c3ccccn3)n2)nc1
5.42
Cc1ccc(-c2cc(-c3ccccn3)nc(-c3ccccn3)c2)cc1.[Cl-].[Cl][Pt+]
5.60
N.N.[Cl][Pt][Cl] [cisplatin, reference compound]
6.48

Now let's try a different one.
Exam item: Give recorded pIC50 with A2780 ovarian cancer cell line for the following compound: CN(C)CCCNCc1ccc(-c2cc(-c3ccccn3)nc(-c3ccccn3)c2)cc1.[Cl-].[Cl][Pt+]
Marked response: 5.34

* * *

- System: A2780cis cisplatin-resistant ovarian cancer cell line
- TEST_PROTOCOL: Cell growth (proliferation), 96 h treatment
- Type: cell-based, human
- CONDITIONS_USED: 96 h treatment
PROPERTY_LABEL: Resistance Factor (IC50ratio A2780cis/A2780)
The reply should be a number, written without any unit.

These recorded examples may help you get a feel for the data.
N.N.[Cl][Pt][Cl] [cisplatin, reference compound]
9.1
CN(C)c1ccc(/C=C/c2cc(-c3ccccn3)nc(-c3ccccn3)n2)cc1.[Cl-].[Cl][Pt+] [Pt-vpym]
0.6
CN(C)CCCNCc1ccc(-c2cc(-c3ccccn3)nc(-c3ccccn3)c2)cc1.[Cl-].[Cl][Pt+] [Pt-ctpy]
1.1

Exam item: # query: Resistance Factor (IC50ratio A2780cis/A2780) of entry [Cl-].[Cl][Pt+].c1ccc(-c2cccc(-c3ccccn3)n2)nc1 [Pt-tpy]
Marked response: 1.6
